target: T1, cynomolgus complement C3b protein (cynomolgus monkey (Macaca fascicularis)); experiment: solution equilibrium titration (SET), ECL detection, Fab
T1 construct: also called cyno C3b; cynoC3b
READOUT KIND: pKd
Give only the number. pKd is defined as minus log10 of concentration in molar units.

Consider the following illustrative entries.
BINDER	pKd
MOR9610 Fab format (Fab, V domains shown) VH: EVQLVQSGAEVKKPGSSVKVSCKASGGTFSSYTFSWVRQAPGQGLEWMGNILPIFGDANYAQKFQGRVTITADESTSTAYMELSSLRSEDTAVYYCARNKGAFYYMSTYPSLDVWGQGTLVTVSS VL: DIQMTQSPSSLSASVGDRVTITCRASQNINYYLNWYQQKPGKAPKLLIYDAFSLQSGVPSRFSGSGSGTDFTLTISSLQPEDFATYYCQQSIAVPPFTFGQGTKVEIK	11.22
MOR9674 Fab format (Fab, V domains shown) VH: EVQLVQSGAEVKKPGASVKVSCKASGYTFTSYSMHWVRQAPGQGLEWMGLINPYNGNTHYAQKFQGRVTMTRDTSISTAYMELSSLRSEDTAVYYCARMLRFDVWGQGTLVTVSS VL: ESALTQPASVSGSPGQSITISCTGTSSDGGGYNYVSWYQQHPGKAPKLMIYGVSNRPSGVSNRFSGSKSGNTASLTISGLQAEDEADYYCQTYTRYSDSPVFGGGTKLTVLG	10.05
MOR9556 Fab format (Fab, V domains shown) VH: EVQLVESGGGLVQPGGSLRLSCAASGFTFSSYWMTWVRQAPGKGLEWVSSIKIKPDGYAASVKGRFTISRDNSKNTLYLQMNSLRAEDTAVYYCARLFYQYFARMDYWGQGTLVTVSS VL: DIQMTQSPSSLSASVGDRVTITCRASQDISNYLNWYQQKPGKAPKLLIYAASNLQSGVPSRFSGSGSGTDFTLTISSLQPEDFATYYCQQYDSYSPTFGQGTKVEIK	10.74

Query MOR9675 Fab format (Fab, V domains shown) VH: EVQLVQSGAEVKKPGASVKVSCKASGYTFTGYYINWVRQAPGQGLEWMGIISPNQGTTGYAQKFQGRVTMTRDTSISTAYMELSSLRSEDTAVYYCARGNYDHLDYWGQGTLVTVSS VL: DIQMTQSPSSLSASVGDRVTITCRASQGISNYLNWYQQKPGKAPKLLIYDASTLQSGVPSRFSGSGSGTDFTLTISSLQPEDFATYYCQQDWHTLPVTFGQGTKVEIK yields pKd of 9.62

Value source: patent US20100291106A1
